# TEST PROTOCOL: PK analysis in satellite dogs
# Format: in vivo, dog
# PARTICULARS: female, beagle, dog, whole blood, po, 1 mg/kg, dosed EC3039 1 mg/kg oral qd; female dog; Day 1; detected EC3039; blood

>  <COMPOUND>
CN(C(=O)N[C@H]1CC[C@H](Oc2ccc(C(=O)O)cc2)CC1)c1ccc(OC(F)(F)F)cc1 [EC3039]

>  <Cmax>
568 ng/mL

$$$$

###

# TEST PROTOCOL: Blood and synovial fluid concentrations in treated osteoarthritic dogs
# Format: in vivo, dog
# PARTICULARS: beagle, dog, blood, oral, 5 mg/kg, EC1728 5 mg/kg, day 5, group without dog 2.4; read-out: Blood concentration, average for the remainder of the group

>  <STRUCTURE SMILES STRING>
O=C(Nc1ccc(OC(F)(F)F)cc1)N[C@H]1CC[C@H](Oc2ccc(C(=O)O)cc2)CC1

>  <RESULT UNITS>
ng/mL

>  <concentration at 2 h>
395

$$$$
